Target Of Assay: CYP2C8 (Homo sapiens)
Sequence (P10632 whole entry): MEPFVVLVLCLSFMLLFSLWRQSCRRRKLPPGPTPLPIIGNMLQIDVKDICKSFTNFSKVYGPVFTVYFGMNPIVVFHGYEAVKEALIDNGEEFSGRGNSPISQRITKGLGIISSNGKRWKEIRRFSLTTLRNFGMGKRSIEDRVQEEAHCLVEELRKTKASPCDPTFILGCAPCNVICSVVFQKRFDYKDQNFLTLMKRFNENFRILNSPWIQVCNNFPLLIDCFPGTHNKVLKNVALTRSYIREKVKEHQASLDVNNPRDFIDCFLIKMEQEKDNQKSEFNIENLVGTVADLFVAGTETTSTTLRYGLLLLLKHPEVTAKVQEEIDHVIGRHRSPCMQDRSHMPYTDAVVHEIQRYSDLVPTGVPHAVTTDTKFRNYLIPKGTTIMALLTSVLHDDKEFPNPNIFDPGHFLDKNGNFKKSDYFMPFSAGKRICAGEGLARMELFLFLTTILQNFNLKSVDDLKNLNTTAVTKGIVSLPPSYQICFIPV
Endpoint Name: Ki

Entry O=C(O)c1cccc(-c2noc(-c3ccccc3F)n2)c1 has what Ki?
169 µM

###

Target Of Assay: CYP1A2 (Homo sapiens, UniProt P05177)
Sequence (P05177 1-516): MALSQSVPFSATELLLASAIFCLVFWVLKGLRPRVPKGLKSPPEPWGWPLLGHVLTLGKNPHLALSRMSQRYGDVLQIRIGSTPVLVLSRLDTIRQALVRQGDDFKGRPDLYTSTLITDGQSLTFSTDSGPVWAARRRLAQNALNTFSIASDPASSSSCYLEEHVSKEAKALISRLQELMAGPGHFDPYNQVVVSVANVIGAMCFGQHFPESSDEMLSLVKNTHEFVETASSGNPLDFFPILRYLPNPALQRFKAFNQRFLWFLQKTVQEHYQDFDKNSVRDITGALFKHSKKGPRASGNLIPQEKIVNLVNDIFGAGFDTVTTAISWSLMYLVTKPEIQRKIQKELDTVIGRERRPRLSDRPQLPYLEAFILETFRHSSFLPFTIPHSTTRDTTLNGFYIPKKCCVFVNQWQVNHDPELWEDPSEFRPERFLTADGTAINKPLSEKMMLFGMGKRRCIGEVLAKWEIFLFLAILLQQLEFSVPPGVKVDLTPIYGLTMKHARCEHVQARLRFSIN
Endpoint Name: IC50

Can you share its IC50? I mean this compound: O=C(O)c1cccc(-c2noc(-c3ccccc3F)n2)c1 [ataluren, Ataluren]
> 400 µM

###

Procedure Details: Ataluren glucuronidation kinetics, human liver microsomes
Format: in vitro ADME
Condition: human, pooled human liver microsomes incubation mixture, pH 7.5, HLM, 1% BSA, mean ± SD, n = 3; read-out: fu,inc
Experimental: Ataluren at 0.5, 2.5, 12.5, 25, 50, 100, 200, and 400 µmol/L, was incubated (n = 3) at 37°C with recombinant human UGT1A9 and with pooled microsomes from human liver, kidney, and intestine (0.025 mg protein/mL, preactivated with alamethicin at 20 µg/mL) in Tris‐HCl buffer (0.1 mol/L, pH 7.5), in the presence of 1 mmol/L EDTA, 5 mmol/L MgCl2, with or without 0.5%, 1%, or 2% BSA. […] The filtrates were used for LC‐MS/MS analysis to quantify the formation of ataluren‐O‐1β‐acyl glucuronide. […]
Endpoint Name: fraction unbound at 15 min
Numbers only.

I have this compound here, O=C(O)c1cccc(-c2noc(-c3ccccc3F)n2)c1 , and I need its recorded fraction unbound at 15 min.
0.05

###

Procedure Details: Ataluren glucuronidation kinetics, human liver microsomes
Format: in vitro ADME
Condition: human, pooled human liver microsomes incubation mixture, pH 7.5, HLM, 0.5% BSA, mean ± SD, n = 3; read-out: fu,inc
Endpoint Name: fraction unbound at 15 min

Record request: fraction unbound at 15 min value, item O=C(O)c1cccc(-c2noc(-c3ccccc3F)n2)c1
0.093

###

Target Of Assay: CYP2B6 (Homo sapiens, UniProt P20813)
Sequence (P20813 whole entry): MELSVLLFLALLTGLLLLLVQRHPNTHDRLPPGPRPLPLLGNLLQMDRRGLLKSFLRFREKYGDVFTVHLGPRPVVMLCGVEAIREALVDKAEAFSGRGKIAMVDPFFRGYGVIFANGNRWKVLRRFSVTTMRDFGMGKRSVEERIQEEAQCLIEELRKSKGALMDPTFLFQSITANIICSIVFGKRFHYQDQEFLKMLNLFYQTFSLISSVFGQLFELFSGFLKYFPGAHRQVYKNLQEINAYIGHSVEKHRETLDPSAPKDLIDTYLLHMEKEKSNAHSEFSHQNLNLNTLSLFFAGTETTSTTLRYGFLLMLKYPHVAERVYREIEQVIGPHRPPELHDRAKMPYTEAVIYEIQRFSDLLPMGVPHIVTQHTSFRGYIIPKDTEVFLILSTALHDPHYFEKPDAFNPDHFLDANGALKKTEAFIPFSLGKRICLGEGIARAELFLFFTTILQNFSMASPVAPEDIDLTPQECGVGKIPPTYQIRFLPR
pIC50: −log10 of the molar value.
Endpoint Name: pIC50

Consider the molecule O=C(O)c1cccc(-c2noc(-c3ccccc3F)n2)c1 and give its measured pIC50.
< 3.40

###

Target Of Assay: CYP2C9 (Homo sapiens, UniProt P11712)
Construct: tissue XenoTech LLC, Celsis-In Vitro Technologies, or Tissue Transformation Technologies; host or cells: pooled human liver microsomes
Sequence (P11712 whole entry): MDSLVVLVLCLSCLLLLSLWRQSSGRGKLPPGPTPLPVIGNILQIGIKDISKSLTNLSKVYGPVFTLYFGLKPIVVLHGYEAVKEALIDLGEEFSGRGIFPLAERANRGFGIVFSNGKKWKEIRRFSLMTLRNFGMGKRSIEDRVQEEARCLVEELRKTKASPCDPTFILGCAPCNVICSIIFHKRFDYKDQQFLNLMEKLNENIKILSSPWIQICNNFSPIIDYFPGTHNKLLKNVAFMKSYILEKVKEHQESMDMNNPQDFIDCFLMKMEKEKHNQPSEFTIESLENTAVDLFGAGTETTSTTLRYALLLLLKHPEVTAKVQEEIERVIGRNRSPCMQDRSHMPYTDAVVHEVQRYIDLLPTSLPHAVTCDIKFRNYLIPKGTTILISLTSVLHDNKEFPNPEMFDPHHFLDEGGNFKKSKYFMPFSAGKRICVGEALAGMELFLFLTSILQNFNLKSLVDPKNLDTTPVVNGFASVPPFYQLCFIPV
Procedure Details: CYP inhibition in pooled human liver microsomes: CYP2C9
Format: in vitro ADME
Condition: human, pooled human liver microsomes, pH 7.4; CYP2C9, HLM
Endpoint Name: pIC50
One number for each entry, as −log10 of the molar value.

What value of pIC50 has been recorded for this entry: O=C(O)c1cccc(-c2noc(-c3ccccc3F)n2)c1
3.87
